Values were extracted from ChEMBL document CHEMBL1151705.

Tested on: Haemophilus influenzae
procedure_summary: Antimicrobial activity against drug-susceptible Haemophilus influenzae 3 after 20 hrs by agar dilution method
Type: functional
Assign MIC to each entry below.
Give bare numbers, in µg/mL.

CCOC(=O)[C@H]1[C@H](C)O[C@@H](O[C@H]2[C@H](N(C)C)[C@@H](O)[C@H](O[C@H]3[C@@H](CC=O)C[C@@H](C)[C@@H](O)CN(C)CCC(C/C=C/c4cnc5ccccc5c4)NC(=O)C[C@@H](OC(=O)CC)[C@@H]3OC)O[C@@H]2C)C[C@@]1(C)O (stereo in doubt; form 2) = 16

From here, focus on the item given below.
The compound listed as CCOC(=O)[C@H]1[C@H](C)O[C@@H](O[C@H]2[C@H](N(C)C)[C@@H](O)[C@H](O[C@H]3[C@@H](CC=O)C[C@@H](C)[C@@H](O)CN(C)CC(/C=C\Cc4ccnc5ccccc45)CCOC(=O)C[C@@H](OC(=O)CC)[C@@H]3OC)O[C@@H]2C)C[C@@]1(C)O (stereo in doubt; form 2) shows MIC equal to 128
